B1: MGC27345 (parent)
chain: KYMPHLCQDSSGEVSCQCQLHPPR

variants of: B1; assay: protein stability index of a GFP-peptide fusion (GPS, HEK-293T) (PSI 1-6); higher = more stable; settings: c terminus: a fixed tail appended;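 note: lentivirally expressed fusions sorted by FACS into six bins by GFP to DsRed ratio, PSI derived from sequencing read proportions per bin multiplied by bin number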
assay.readout: protein stability index

> print(dat)
    variant.label  experimental.result
 1           E13P                 2.31
 2            D9M                 2.15
 3            L6V                 2.65
 4           G12M                 1.88
 5            Q8E                 1.97
 6            Y2Q                 1.78
 7            K1A                 1.82
 8           C16A                 3.38
 9           E13W                 1.03
10           Q17K                 3.52
11           P23K                 2.35
12            C7K                  1.9
13            Y2T                  2.3
14            Q8H                 2.03
15            P4N                 1.78
16           C16Q                 3.99
17           S15L                 1.72
18           P23E                 3.48
19            L6M                 1.79
20           L20E                  3.1
21            Q8L                 1.77
22            Y2P                 1.79
23           C16D                 3.88
24            M3N                 2.55
25           S11M                 2.12
26           Q19M                 2.13
27            P4Q                 1.99
28           Q19C                 2.07
29            P4K                 1.58
30           S10H                 2.91
31            C7E                 1.77
32           H21L                 1.51
33           P23T                 2.02
